tested on: 769-P; test: GI50, drug alone; higher = less potent; conditions: treatment: drug alone; 5 days
// values below are reported GI50, drug alone
Use nM as the unit, but write only the number.

Here are 3 molecules together with their reported answers.
COC(=O)Nc1ccc(-c2nc(N3CCOCC3)c3cnn(C4CCN(C(=O)OC)CC4)c3n2)cc1 [WYE-354]	2270
Oc1cccc(-c2nc(N3CCOCC3)c3oc4ncccc4c3n2)c1 [PI-103]	1360
CNC(=O)Nc1ccc(-c2nc(N3CC4CCC(C3)O4)c3cnn(C4CCC5(CC4)OCCO5)c3n2)cc1	122

Now examine the next entry.
// lookup GI50, drug alone for C=CC(=O)Nc1cccc(Sc2nc(Nc3ccc(N4CCN(C)CC4)cc3)ncc2Cl)c1 [WZ8040]
2960

====

test system: 769-P; experiment: GI50 of drug in presence of dasatinib; higher = less potent; conditions: treatment: drug + dasatinib (fixed dose, not stated); 5 days
// values below are reported GI50 of drug
Use nM as the unit, but write only the number.

Cc1ncc(-c2ccnc(Nc3ccc(S(C)(=O)=O)cc3)n2)n1C(C)C [AZD5438] + Cc1nc(Nc2ncc(C(=O)Nc3c(C)cccc3Cl)s2)cc(N2CCN(CCO)CC2)n1	474

Now examine the next entry.
// lookup GI50 of drug for C#Cc1cccc(Nc2ncnc3cc(OCCOC)c(OCCO)cc23)c1.Cl [OSI-420 (Desmethyl Erlotinib)] + Cc1nc(Nc2ncc(C(=O)Nc3c(C)cccc3Cl)s2)cc(N2CCN(CCO)CC2)n1
510

====

tested on: ACHN; assay: minimum viability across doses, drug + dasatinib, relative to DMSO (fraction); higher = less growth inhibition; details: treatment: drug + dasatinib (fixed dose, not stated); 5 days
// values below are reported minimum viability across doses

CC[C@H](Nc1ncnc2[nH]cnc12)c1nc2cccc(F)c2c(=O)n1-c1ccccc1 [CAL-101 (GS-1101)] + Cc1nc(Nc2ncc(C(=O)Nc3c(C)cccc3Cl)s2)cc(N2CCN(CCO)CC2)n1 [dasatinib]	0.341

// lookup minimum viability across doses for COc1cc(Nc2ncc(F)c(Nc3ccc4c(n3)N(COP(=O)(O)O)C(=O)C(C)(C)O4)n2)cc(OC)c1OC [R788 (Fostamatinib)] + Cc1nc(Nc2ncc(C(=O)Nc3c(C)cccc3Cl)s2)cc(N2CCN(CCO)CC2)n1 [dasatinib]
0.04

Same for Cn1cc(C2=C(c3cn(C4CCN(Cc5ccccn5)CC4)c4ccccc34)C(=O)NC2=O)c2ccccc21 + Cc1nc(Nc2ncc(C(=O)Nc3c(C)cccc3Cl)s2)cc(N2CCN(CCO)CC2)n1 [dasatinib]
0.566

====

tested on: SN12C; test: AUC of dose-response viability curve, drug alone (arbitrary (AUC of normalised viability)); higher = less growth inhibition; settings: treatment: drug alone; 5 days
measurement.label: AUC of dose-response viability curve
Give the value as a plain number.

Here are 6 compounds together with their reported answers.
CN(C)Cc1cccc(N/C(=C2\C(=O)Nc3cc(C(=O)N(C)C)ccc32)c2ccccc2)c1	3.05
CNC(=O)c1nn(C)c2c1C(C)(C)Cc1cnc(Nc3ccc(N4CCN(C)CC4)cc3)nc1-2	2.54
CCN1CCN(C(=O)Cc2ccc(Nc3ncc(F)c(Nc4ccc(C(=O)Nc5ccccc5Cl)cc4)n3)cc2)CC1	2.95
O=C(NOCC1CC1)c1ccc(F)c(F)c1Nc1ccc(I)cc1Cl	2.86
COc1ccc(-c2ccc3ncc4c(c3c2)n(-c2ccc(N3CCNCC3)c(C(F)(F)F)c2)c(=O)n4C)cn1.O=C(O)/C=C\C(=O)O	0.857
NC(=O)Nc1cc(-c2cccc(F)c2)sc1C(=O)N[C@H]1CCCNC1	2.07

// lookup AUC of dose-response viability curve for NCC(=O)Nc1ccc(-n2nc(C(F)(F)F)cc2-c2ccc3c(ccc4ccccc43)c2)cc1
3.13

====

test system: 769-P; assay: AUC of dose-response viability curve, drug alone (arbitrary (AUC of normalised viability)); higher = less growth inhibition; conditions: treatment: drug alone; 5 days
measurement.label: AUC of dose-response viability curve
Give the value as a plain number.

CN[C@@H]1C[C@H]2O[C@@](C)([C@@H]1OC)n1c3ccccc3c3c4c(c5c6ccccc6n2c5c31)C(=O)NC4 [Staurosporine]	0.299

Please tell me: AUC of dose-response viability curve of COc1ccc(C2=NC(c3ccc(Cl)cc3)C(c3ccc(Cl)cc3)N2C(=O)N2CCNC(=O)C2)c(OC(C)C)c1 (stereo not drawn) [Nutlin-3] , system 769-P?
3.42

Same for C#Cc1cccc(Nc2ncnc3cc(OCCOC)c(OCCOC)cc23)c1.Cl [Erlotinib HCl]
2.66

====

tested on: 786-O; test: AUC of dose-response viability curve, drug + dasatinib, normalised to DMSO (arbitrary (AUC of normalised viability)); higher = less growth inhibition; settings: treatment: drug + dasatinib (fixed dose, not stated); 5 days
measurement.label: AUC of dose-response viability curve
Give the value as a plain number.

Here are 6 compounds together with their reported answers.
C[C@@H](Oc1cc(-c2cnn(C3CCNCC3)c2)cnc1N)c1c(Cl)ccc(F)c1Cl + Cc1nc(Nc2ncc(C(=O)Nc3c(C)cccc3Cl)s2)cc(N2CCN(CCO)CC2)n1	2.22
Cc1cc(Nc2cc(N3CCN(C)CC3)nc(/C=C/c3ccccc3)n2)n[nH]1.O=C(O)[C@H](O)[C@@H](O)C(=O)O [ENMD-2076] + Cc1nc(Nc2ncc(C(=O)Nc3c(C)cccc3Cl)s2)cc(N2CCN(CCO)CC2)n1	1.78
COc1cc(OC)c(/C=C/S(=O)(=O)Cc2ccc(OC)c(NCC(=O)[O][Na])c2)c(OC)c1 + Cc1nc(Nc2ncc(C(=O)Nc3c(C)cccc3Cl)s2)cc(N2CCN(CCO)CC2)n1	0.766
CCN(CC)CCNC(=O)c1c(C)[nH]c(/C=C2\C(=O)Nc3ccc(F)cc32)c1C.O=C(O)C[C@H](O)C(=O)O [Sunitinib Malate (Sutent)] + Cc1nc(Nc2ncc(C(=O)Nc3c(C)cccc3Cl)s2)cc(N2CCN(CCO)CC2)n1	2.49
COC(=O)Nc1ccc(-c2nc(N3CCOCC3)c3cnn(C4CCN(Cc5cccnc5)CC4)c3n2)cc1 [WYE-687] + Cc1nc(Nc2ncc(C(=O)Nc3c(C)cccc3Cl)s2)cc(N2CCN(CCO)CC2)n1	2.02
Cc1cn(-c2cc(NC(=O)c3ccc(C)c(Nc4nccc(-c5cccnc5)n4)c3)cc(C(F)(F)F)c2)cn1 [Nilotinib (AMN-107)] + Cc1nc(Nc2ncc(C(=O)Nc3c(C)cccc3Cl)s2)cc(N2CCN(CCO)CC2)n1	2.77

// lookup AUC of dose-response viability curve for Cc1[nH]c(/C=C2\C(=O)Nc3ccccc32)c(C)c1CCC(=O)O [TSU-68] + Cc1nc(Nc2ncc(C(=O)Nc3c(C)cccc3Cl)s2)cc(N2CCN(CCO)CC2)n1
2.39

Same for CC(=O)NCC(=O)N1[C@H]2CC[C@H]1c1cc(Nc3ncc(C(F)(F)F)c(NC4CCC4)n3)ccc12 + Cc1nc(Nc2ncc(C(=O)Nc3c(C)cccc3Cl)s2)cc(N2CCN(CCO)CC2)n1
0.86

Same for Cl.Cl.Fc1cc(-c2cccc3ncc(-c4cnn(C5CCNCC5)c4)nc23)cc(F)c1CN1CCOCC1 [NVP-BSK805] + Cc1nc(Nc2ncc(C(=O)Nc3c(C)cccc3Cl)s2)cc(N2CCN(CCO)CC2)n1
1.85

Same for C=CC(=O)Nc1cccc(Oc2nc(Nc3ccc(N4CCN(C)CC4)cc3)ncc2Cl)c1 [WZ3146] + Cc1nc(Nc2ncc(C(=O)Nc3c(C)cccc3Cl)s2)cc(N2CCN(CCO)CC2)n1
1.88

Same for COc1cc2ncnc(Nc3cccc(Br)c3)c2cc1OC.Cl + Cc1nc(Nc2ncc(C(=O)Nc3c(C)cccc3Cl)s2)cc(N2CCN(CCO)CC2)n1
2.14

Same for COc1cc2c(Oc3ccc(NC(=O)C4(C(=O)Nc5ccc(F)cc5)CC4)cc3F)ccnc2cc1OCCCN1CCOCC1 + Cc1nc(Nc2ncc(C(=O)Nc3c(C)cccc3Cl)s2)cc(N2CCN(CCO)CC2)n1
1.65

====

system: A498; assay: minimum viability across doses, drug + dasatinib, relative to DMSO (fraction); higher = less growth inhibition; details: treatment: drug + dasatinib (fixed dose, not stated); 5 days
measurement.label: minimum viability across doses

Here are 8 molecules together with their reported answers.
COc1cc2c(Oc3ccc(NC(=O)C4(C(=O)Nc5ccc(F)cc5)CC4)cc3F)ccnc2cc1OCCCN1CCOCC1 + Cc1nc(Nc2ncc(C(=O)Nc3c(C)cccc3Cl)s2)cc(N2CCN(CCO)CC2)n1	0.0345
Oc1ccc(-c2nc(-c3ccc(F)cc3)c(-c3ccncc3)[nH]2)cc1 + Cc1nc(Nc2ncc(C(=O)Nc3c(C)cccc3Cl)s2)cc(N2CCN(CCO)CC2)n1	0.909
CNC(=O)c1c(F)cccc1Nc1nc(Nc2cc3c(cc2OC)CCN3C(=O)CN(C)C)nc2[nH]ccc12 + Cc1nc(Nc2ncc(C(=O)Nc3c(C)cccc3Cl)s2)cc(N2CCN(CCO)CC2)n1	0.015
COc1cc(CCc2cc(NC(=O)c3ccc(N4C[C@@H](C)N[C@@H](C)C4)cc3)n[nH]2)cc(OC)c1 [AZD4547] + Cc1nc(Nc2ncc(C(=O)Nc3c(C)cccc3Cl)s2)cc(N2CCN(CCO)CC2)n1	0.542
CC[C@@H]1C(=O)N(C)c2cnc(Nc3ccc(C(=O)N[C@H]4CC[C@H](N5CCN(CC6CC6)CC5)CC4)cc3OC)nc2N1C(C)C [BI6727 (Volasertib)] + Cc1nc(Nc2ncc(C(=O)Nc3c(C)cccc3Cl)s2)cc(N2CCN(CCO)CC2)n1	0.0361
Cc1nc(Nc2ncc(C(=O)Nc3c(C)cccc3Cl)s2)cc(N2CCN(CCO)CC2)n1 + Cc1nc(Nc2ncc(C(=O)Nc3c(C)cccc3Cl)s2)cc(N2CCN(CCO)CC2)n1	0.413
NC(=O)Nc1cc(-c2cccc(F)c2)sc1C(=O)N[C@H]1CCCNC1 [AZD7762] + Cc1nc(Nc2ncc(C(=O)Nc3c(C)cccc3Cl)s2)cc(N2CCN(CCO)CC2)n1	0.0562
COc1cc2ncnc(Nc3ccc(O)c(Br)c3)c2cc1OC [WHI-P154] + Cc1nc(Nc2ncc(C(=O)Nc3c(C)cccc3Cl)s2)cc(N2CCN(CCO)CC2)n1	0.937

Please tell me: minimum viability across doses of Nc1cccc(-c2cc3c(Oc4cccc(O)c4)ncnc3[nH]2)c1 [TWS119] + Cc1nc(Nc2ncc(C(=O)Nc3c(C)cccc3Cl)s2)cc(N2CCN(CCO)CC2)n1 , system A498?
0.653

Same for O=C(Nc1ccc(OC(F)(F)F)cc1)c1sccc1NCc1ccnc2ccccc12 [OSI-930] + Cc1nc(Nc2ncc(C(=O)Nc3c(C)cccc3Cl)s2)cc(N2CCN(CCO)CC2)n1
0.685
